Biological target: rat liver HMG-COA reductase (Rattus norvegicus, UniProt P51639)
Construct: rat liver HMG-COA reductase activity; from tissue; host or cells: rat liver
Sequence (P51639 1-887): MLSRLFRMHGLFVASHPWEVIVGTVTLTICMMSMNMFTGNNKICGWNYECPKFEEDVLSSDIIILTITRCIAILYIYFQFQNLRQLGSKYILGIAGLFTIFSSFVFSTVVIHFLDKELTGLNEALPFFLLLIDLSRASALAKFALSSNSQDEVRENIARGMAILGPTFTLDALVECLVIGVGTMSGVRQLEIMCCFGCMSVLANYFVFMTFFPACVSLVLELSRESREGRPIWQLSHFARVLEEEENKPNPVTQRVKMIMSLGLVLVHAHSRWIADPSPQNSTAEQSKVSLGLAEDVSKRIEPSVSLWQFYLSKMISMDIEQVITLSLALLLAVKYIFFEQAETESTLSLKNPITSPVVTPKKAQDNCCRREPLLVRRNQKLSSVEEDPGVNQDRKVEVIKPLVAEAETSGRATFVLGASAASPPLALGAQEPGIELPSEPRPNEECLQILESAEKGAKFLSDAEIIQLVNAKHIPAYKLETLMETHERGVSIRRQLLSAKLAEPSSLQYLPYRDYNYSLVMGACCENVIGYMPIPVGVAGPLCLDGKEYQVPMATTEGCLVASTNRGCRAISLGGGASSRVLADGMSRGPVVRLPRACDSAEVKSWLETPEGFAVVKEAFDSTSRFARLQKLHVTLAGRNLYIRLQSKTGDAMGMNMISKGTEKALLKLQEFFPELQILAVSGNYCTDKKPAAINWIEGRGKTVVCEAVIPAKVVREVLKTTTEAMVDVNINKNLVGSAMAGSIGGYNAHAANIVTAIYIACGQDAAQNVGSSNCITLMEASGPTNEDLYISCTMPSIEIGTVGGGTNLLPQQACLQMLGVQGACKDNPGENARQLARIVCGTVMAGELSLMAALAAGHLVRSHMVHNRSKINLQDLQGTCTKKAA
Experiment: inhibition of rat liver HMG-CoA reductase activity
Type: biochemical
Details: Example IV; read-out: IC50 (HMG-CoA reductase)
Source text: While a number of the compounds of the Formula I are known HMG-CoA reductase inhibitors, there is no apparent correlation between HMG-CoA reductase inhibitory activity and promotion of differentiation activity according to the invention. […]
quantity-name: IC50 (nM)

compound	unit-abbrev	value-reported
CC(C)c1nc(-c2ccccc2)n(-c2ccc(F)cc2)c1/C=C/[C@H](O)C[C@@H](O)CC(=O)O (relative stereo)	nM	3
